Target: Melanocortin receptor 3 (Homo sapiens, UniProt P41968)
Sequence (P41968 whole entry): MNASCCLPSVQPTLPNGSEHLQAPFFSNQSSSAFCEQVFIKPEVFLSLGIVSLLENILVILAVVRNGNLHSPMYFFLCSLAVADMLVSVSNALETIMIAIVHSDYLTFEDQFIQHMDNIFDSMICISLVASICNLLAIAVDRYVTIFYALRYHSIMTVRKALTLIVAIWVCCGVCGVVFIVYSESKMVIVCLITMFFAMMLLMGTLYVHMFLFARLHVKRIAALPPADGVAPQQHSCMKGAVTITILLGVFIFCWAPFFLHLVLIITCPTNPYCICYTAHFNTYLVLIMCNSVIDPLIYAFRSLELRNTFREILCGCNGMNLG
Assay: Displacement of [125I]-NDP-alpha-MSH from human MC3R expressed in HEK293 cells by Topcount beta counter analysis
Format: cell-based
Conditions: read-out: Ki

substance: H-LFHYQQKQKPPGFKGKFQQFKLRPP-OH
measurement target: Melanocortin receptor 3 (Homo sapiens, UniProt P41968)
Ki [nM]: 41

###

Reported Ki values for the following substances.
Biological target: Melanocortin receptor 4 (Homo sapiens)
Test: Displacement of [125I]-NDP-alpha-MSH from human MC4R expressed in CHO cells by Topcount beta counter analysis
Type: cell-based
Details: read-out: pKi (converted)

substance: H-YQQKQKPPGFKGKFQQFKLRPP-OH
Ki: 1320 nM
//
substance: H-LFHYQQKQKPPGFKGKFQQFKL-OH
Ki: 27.5 nM
//
substance: H-LFHYQQKQKPPGFKGKFQQF-OH
Ki: 53.7 nM
//
substance: H-LFHYQQKQKPPGFKGAFQQFKLRPP-OH
Ki: 72.4 nM
//
substance: H-LFHYQQKQKPPGFKGKFQQFKLR-OH
Ki: 12.3 nM

###

Reported log10 of Ki values for the following substances.
Biological target: Melanocortin receptor 4 (Homo sapiens, UniProt P32245)
Sequence (P32245 whole entry): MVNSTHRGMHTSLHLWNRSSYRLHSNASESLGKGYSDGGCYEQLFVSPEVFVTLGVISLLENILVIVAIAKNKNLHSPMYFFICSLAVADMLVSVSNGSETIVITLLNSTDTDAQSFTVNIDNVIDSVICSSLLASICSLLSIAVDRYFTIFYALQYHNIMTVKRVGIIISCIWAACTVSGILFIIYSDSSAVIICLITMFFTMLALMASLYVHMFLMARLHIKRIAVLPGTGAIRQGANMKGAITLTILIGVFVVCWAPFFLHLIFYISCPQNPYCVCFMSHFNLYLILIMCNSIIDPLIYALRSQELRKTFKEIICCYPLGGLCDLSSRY
Assay: Displacement of [125I]-NDP-alpha-MSH from human MC4R expressed in CHO cells by Topcount beta counter analysis
Type: cell-based
Conditions: read-out: pKi (converted)
endpoint label: log10 of Ki (log10 of the value in µM)

substance: H-FHYQQKQKPPGFKGKFQQFKLRPP-OH
endpoint label: log10 of Ki
observed value: -0.54
//
substance: H-HYQQKQKPPGFKGKFQQFKLRPP-OH
endpoint label: log10 of Ki
observed value: 0.31
//
substance: Ac-LFHYQQKQKPPGFKGKFQQFKLRPP-OH
endpoint label: log10 of Ki
observed value: -0.87
//
substance: H-LFHYQQKQKPPGFKGKFQQFKLRPP-NH2
endpoint label: log10 of Ki
observed value: -2.09
//
substance: H-LFHYQQKQKPPGFEGKFQQFKLRPP-OH
endpoint label: log10 of Ki
observed value: -0.59
//
substance: H-AFHYQQKQKPPGFKGKFQQFKLRPP-OH
endpoint label: log10 of Ki
observed value: -0.91
//
substance: H-LFHYQQKQKPPGFKGKFQQFKLRPP-OH
endpoint label: log10 of Ki
observed value: -1.87

###

Target: Melanocortin receptor 5 (Homo sapiens)
Sequence (P33032 whole entry): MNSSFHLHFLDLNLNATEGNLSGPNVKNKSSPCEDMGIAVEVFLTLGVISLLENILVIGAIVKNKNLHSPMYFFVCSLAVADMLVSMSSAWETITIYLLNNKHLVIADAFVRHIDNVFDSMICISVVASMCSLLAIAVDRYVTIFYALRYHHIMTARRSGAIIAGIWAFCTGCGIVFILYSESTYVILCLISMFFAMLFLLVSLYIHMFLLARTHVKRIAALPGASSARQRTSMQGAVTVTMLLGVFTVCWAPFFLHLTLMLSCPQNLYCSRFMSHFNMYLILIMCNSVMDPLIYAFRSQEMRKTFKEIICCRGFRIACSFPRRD
Assay: Displacement of [125I]-NDP-alpha-MSH from human MC5R expressed in CHO cells by Topcount beta counter analysis
Type: cell-based
Details: read-out: Ki
pKi: −log10 of the molar value.

substance: H-LFHYQQKQKPPGFKGKFQQFKLRPP-OH
measurement target: Melanocortin receptor 5 (Homo sapiens)
pKi: 6.71

###

Reported Ki values for the following substances.
Target: Melanocortin receptor 4 (Homo sapiens, UniProt P32245)
Assay: Displacement of [125I]-NDP-alpha-MSH from human MC4R expressed in CHO cells by Topcount beta counter analysis
Format: cell-based
Details: read-out: Ki
endpoint label: Ki (nM)

substance: H-LFHYQQKQKPPGFKGKFQQFKLR-OH
endpoint label: Ki
observed value: 14

substance: H-LFHYQQKQKPPGFKGAFQQFKLRPP-OH
endpoint label: Ki
observed value: 75

substance: H-LFHYQQKQKPPGFAGKFQQFKLRPP-OH
endpoint label: Ki
observed value: 54

substance: H-LFHYQQKQKPPGFKGKFQQFKL-OH
endpoint label: Ki
observed value: 29

substance: H-AFHYQQKQKPPGFKGKFQQFKLRPP-OH
endpoint label: Ki
observed value: 125

substance: H-LFHYQQKQKPPGFKGEFQQFKLRPP-OH
endpoint label: Ki
observed value: 203

substance: H-LFHYQQKQKPPGFKGKFQQF-OH
endpoint label: Ki
observed value: 55

substance: H-FHYQQKQKPPGFKGKFQQFKLRPP-OH
endpoint label: Ki
observed value: 334

substance: H-LFHAQQKQKPPGFKGKFQQFKLRPP-OH
endpoint label: Ki
observed value: 111

substance: H-LAHYQQKQKPPGFKGKFQQFKLRPP-OH
endpoint label: Ki
observed value: 236

substance: H-LFHYQQKQKPPGFKGKFQQFKLRPP-OH
endpoint label: Ki
observed value: 15

substance: H-LFHYQQKQKPPGFEGKFQQFKLRPP-OH
endpoint label: Ki
observed value: 262

substance: H-HYQQKQKPPGFKGKFQQFKLRPP-OH
endpoint label: Ki
observed value: 2200

substance: Ac-LFHYQQKQKPPGFKGKFQQFKLRPP-OH
endpoint label: Ki
observed value: 138

substance: H-LFHYQQKQKPPGFKGKFQQFKLRPP-NH2
endpoint label: Ki
observed value: 9

substance: H-YQQKQKPPGFKGKFQQFKLRPP-OH
endpoint label: Ki
observed value: 1440

The measured values listed here are drawn from ChEMBL document CHEMBL5113520.
